target: T1, human PD-L1-Fc (SinoBiological) (human, UniProt Q9NZQ7 19-239); assay: BLI (Octet RED96), VHH on Penta-HIS sensor, human PD-L1-Fc in solution
T1 construct: Bought; not shown: Fc of a bought fusion protein
T1 sequence (Q9NZQ7 19-239 limits assumed): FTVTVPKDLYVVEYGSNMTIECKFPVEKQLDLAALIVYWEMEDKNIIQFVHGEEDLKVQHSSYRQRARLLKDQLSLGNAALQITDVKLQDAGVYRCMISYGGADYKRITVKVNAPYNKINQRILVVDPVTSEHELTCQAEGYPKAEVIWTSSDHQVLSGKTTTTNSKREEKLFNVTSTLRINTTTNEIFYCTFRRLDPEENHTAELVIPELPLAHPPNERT

[
  {
    "BINDER": "2LIG97 VHH-(His)6 (pHEN6C-PelB-PD-L1 VHH-(His)6) (VHH) VHH: QVQLQESGGGLVQAGESLRLSCTASGTIFSINRMDWFRQAPGKQRELVALITSDGTPTYADSAKGRFTISRDNTKKTVSLQMNSLKPEDTAVYYCHVSSGVYNYWGQGTQVTVSS",
    "kon [M⁻¹ s⁻¹]": 423000
  },
  {
    "BINDER": "2LIG176 VHH-(His)6 (pHEN6C-PelB-PD-L1 VHH-(His)6) (VHH) VHH: QVQLQESGGGLVQAGGSLRLSCAASESIFSIEAMGWYRQAPGKQRELVAAIFGGGFTNYADSVKGRFTISRDNANRTVYLQMNSLKPEDTAVYYCNADLVSGSSRLYDYWGQGTQVTVSS",
    "kon [M⁻¹ s⁻¹]": "1.18e+06"
  }
]
